Test system: UACC-257 melanoma
Test: NCI-60 one-dose screen, 48 h (100 = growth as untreated, 0 = no growth, -100 = all killed)
Settings: 10 µM unless noted
Compounds without any hit were thinned out: in the full panel of roughly 83,000, 20% have a hit.
observable: growth (%)
# value in %; strip the unit string

So what does the record say about growth for CCOc1ccc(C2N(c3cc(OC)c(OC)c(OC)c3)C(=O)C2(F)F)cc1 (stereo not given) ? 58.7

State the recorded growth for this entry: Cc1cc(C)c2nc(Nc3nc(C)c(C)c(=O)[nH]3)nc(C)c2c1 14.1

growth for COC(=O)c1cc2c3c(cc(O)c2[nH]1)N(C(=O)C1Cc2cc(OC)c(OC)c(OC)c2N1)CC3CCl (stereo not given) ? -72.3

Given the entry CCOC(=O)C1CCN(S(=O)(=O)/N=C2/NC(=O)NC2=C(Cl)Cl)CC1 , report its measured growth. 19.9

Consider the compound COC(=O)/C=C1\SC(=Nc2cccc(OC)c2)N(CCc2c[nH]c3ccccc23)C1=O and give its measured growth. 61.7

Quick one: growth of COc1cc(-c2csc(NC(=O)Nc3ccc(C(F)(F)F)cc3)n2)cc(OC)c1OC ? -18.1

Look up growth for this compound: O=c1c2ccccc2oc2ccc(OCCCCCCN3CCCCCC3)cc12 2.49

Could you tell me which growth is on file for O=C1Nc2ccc(Cl)cc2/C1=N/c1nc(-c2ccc(F)cc2)cs1 ? 36.5

Query: growth; subject: C/C(=N/Nc1nc2ccccc2n1C)c1ccccn1 -29.2

Please report the recorded growth for O=c1[nH]c2ccccc2cc1-c1nc2ccc(Cl)cc2[nH]1 . 91.5

// query growth value for entry CCOC(=O)c1ccc(Nc2ncnc3ccc(NC(=O)c4ccccc4)cc23)cc1 103

Returns the measured growth for the input compound. Input: COc1ccc2cc(/C=C3\N=C(c4cc(OC)c(OC)c(OC)c4)OC3=O)c(OC)nc2c1 95.5

Reported growth, compound COc1ccccc1-c1ccc2nc(NC(=O)Nc3cc(C(F)(F)F)cc(C(F)(F)F)c3)sc2c1 : ____ -5.57

Record request: growth value, item COc1cc(NCC(=O)Nc2cc(Nc3ccc(C)cc3)ncn2)c(Cl)c(OC)c1Cl 89

What measured growth goes with C=CCn1c(SCC(=O)Nc2ccc(C(=O)/C=C/c3cc(OC)c(OC)c(OC)c3)cc2)nnc1-c1ccc(Cl)cc1 ? 51.3

If you can, please state the reported growth value of C[C@@H]1C(=O)[C@@H]2C[C@@H](O)[C@@H](O)C[C@]2(C)[C@H]2CC[C@@]3(C)C(=C12)CC[C@@H]3[C@@](C)(O)[C@H](O)CCC(C)(C)O . -10.5

Returns the measured growth for the input compound. Input: Nc1c(C(=O)c2ccccc2)sc2nc(-c3cc4ccccc4o3)cc(-c3ccc(Cl)cc3)c12 104

Requested read-out: growth. Entry: COc1cc(/C=C/C(=O)/C=C/c2cc3ccc(Cl)cc3n(Cc3ccccc3)c2=O)ccc1O -13.9

Data request, read-out growth, for COc1cccc2c1-c1ccccc1C2=O 51.5

What does the record list as growth for Cc1cc(O)cc(O)c1N=NC1=NCCS1 ? 101

Could you share which growth value was measured for COc1ccc(-n2cc(COc3ccc4c5ccnc(C)c5n(CC(C)C)c4c3)nn2)cc1 ? 52.7

# lookup: growth of Cc1cc(C)c(NC(=O)c2sc3nc4c(cc3c2N)CCCCCC4)c(C)c1 62.8

For the compound CC(C)C1=C[C@@]23CC[C@H]4[C@](C)(COCCC#N)CCC[C@]4(C)[C@H]2C[C@@H]1[C@@H]1[C@H]3[C@@H](OCCC#N)CC[C@@H]1OCCC#N , what growth is on record? 40.9

Tell me the measured growth of O=C1c2ccccc2C(=O)c2c1oc1c2c(=O)[nH]c2ccccc21 , please. 112

# growth lookup, item COc1ccc(C2N(c3cc(OC)c(OC)c(OC)c3)C(=O)C2(F)F)cc1F (stereo not given) 50

Can you share its growth? I mean this compound: Cc1cccc(NC(=O)c2sc3nc4c(cc3c2N)CN(Cc2ccccc2)CC4)c1C 87.9

Can you share its growth? I mean this compound: CC1(C)[C@@H](O)CC[C@]2(C)[C@H]3CC[C@@H]4[C@H]5[C@H](c6cn(-c7ccccc7)nn6)CC[C@]5(CO)CC[C@@]4(C)[C@]3(C)CC[C@@H]12 83.6

Dear colleague, I am looking for the recorded growth of the following compound: COc1ccc(OCC(=O)OC(C)C)cc1 97.7

Using the record for C=C1C(=O)O[C@H]2[C@H]1CC/C(C=Nc1c(N)cc(F)cc1Br)=C\CC[C@@]1(C)O[C@@H]21 , report its growth. 81.9

Using the record for CCCCn1c(=O)c(/C=C/C(=O)/C=C/c2ccc(OC)cc2)cc2cc(Cl)ccc21 , report its growth. 92.1

Origin of measurements: PubChem BioAssay (NCI)
